biological target: … (Plasmodium falciparum); assay: BLI, target on sensor
pKd: −log10 of the molar value.
value_type: pKd

binder	observed_value
AB-007030 (antibody, V domains shown) VH: QMQLVESGGGVVQPGRSLRLSCTASGFTFSTYAMHWVRQSPGQGLEWVAVISYHSTNKYYADSVRGRFTISRDNSKNTLYLQMNSLRAEDTAVYYCARDGYSSSFFDFWGQGTLVTVSS VL: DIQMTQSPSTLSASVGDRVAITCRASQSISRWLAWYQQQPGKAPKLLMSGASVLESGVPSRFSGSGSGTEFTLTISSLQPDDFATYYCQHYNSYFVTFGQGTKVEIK	8.55
AB-007051 (antibody, V domains shown) VH: QMQLVESGGGVVQPGRSLRLSCTASGFTFSTYAMHWVRQSPGQGLQWVAVISYHSRNKYYEDSVRGRFTISRDNSKNTLYLQMNSLRAEDTAVYYCARDGYSSSFFDFWGQGTLVTVSS VL: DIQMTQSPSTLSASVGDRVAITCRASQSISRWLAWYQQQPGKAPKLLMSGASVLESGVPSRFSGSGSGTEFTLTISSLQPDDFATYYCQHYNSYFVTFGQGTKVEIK	8.49
AB-007062 (antibody, V domains shown) VH: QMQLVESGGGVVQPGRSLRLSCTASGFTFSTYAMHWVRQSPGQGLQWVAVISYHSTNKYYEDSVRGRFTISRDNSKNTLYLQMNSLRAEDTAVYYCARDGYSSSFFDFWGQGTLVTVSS VL: DIQMTQSPSTLSASVGDRVAITCRASQSISSWLAWYQQQPGKAPKLLMSGASVLESGVPSRFSGSGSGTEFTLTISSLQPDDFATYYCQHYNSYFVTFGQGTKVEIK	7.84
